Listed below: melting point values for each entry.

Compound: CCOC(=O)COCc1nnc(S)o1
melting point: 101 to 103 °C

Query block: Could you tell me which melting point is on file for CC(C)(C)OC(=O)N1C(=O)[C@H]2C=C[C@@H]1C2 ?
Result block: 70.5 to 71.5 °C

Query block: Could you tell me which melting point is on file for Cc1occ(S(=O)(=O)NC(C)(C)C)c1C ?
Result block: 95 to 96 °C

Query block: Could you tell me which melting point is on file for CCN1CCCC1CNC(=O)c1c(Br)c(Br)c([N+](=O)[O-])c2c1OCCO2 (centres undefined) ?
Result block: 213 °C

Query block: Could you tell me which melting point is on file for Cc1ccc(-c2ccc3c(c2)C=C(CO)CCO3)cc1 ?
Result block: 91 to 92 °C

Query block: Could you tell me which melting point is on file for O=S(=O)(c1cnn(-c2c(Cl)cc(C(F)(F)F)cc2Cl)c1-n1cccn1)C(F)(F)F ?
Result block: 127 to 133 °C

Query block: Could you tell me which melting point is on file for Nc1ccc(N2CCN(C(C(=O)NCC(F)(F)F)c3ccccc3)CC2)cc1 (centres undefined) ?
Result block: 136 °C

Query block: Could you tell me which melting point is on file for Cc1cnc(CCCC#N)c(O)c1 ?
Result block: 132 °C

Query block: Could you tell me which melting point is on file for Cc1cncc2ncc(-c3ccccc3)cc12 ?
Result block: 135 to 138 °C

###

Listed below: melting point values for each entry.

Sample records with melting point:
Compound: O=C1c2ccc(-c3nnn[nH]3)cc2C(=O)c2cc(N3CCCCC3)ccc21
melting point: 297 to 298 °C

Compound: COc1cc(C(C)=O)ccc1OCCCN1CCC(C(O)(c2cccc(F)c2)c2cccc(F)c2)CC1
melting point: 149 to 151 °C

Compound: Cc1nn(-c2ccsc2)c(=O)cc1-c1ccc(OC2CCN(C3CCC3)CC2)cc1
melting point: 277 to 279 °C

Compound: CN(C)C=Nc1ncc[nH]1
melting point: 146 to 147 °C

Compound: CCCOc1ccc(S(=O)(=O)N2CCN(C)CC2)cc1-c1cc2c([nH]1)c(=O)n(C)c(=O)n2CCC
melting point: 198 °C

Compound: C[C@@]1(O)CCCC[C@H]1n1nc(-c2c(-c3ccccc3)nn3ccccc23)ccc1=O (relative stereo)
melting point: 197 to 198 °C

Compound: O=C1c2ccccc2-c2c1c1ccc([N+](=O)[O-])cc1c(=O)n2CCCNS(=O)(=O)c1ccccc1
melting point: 258 to 259 °C

Compound: O=C(O)C=Cc1cc(N2CCNCC2)ccc1[N+](=O)[O-]
melting point: 229 to 237 °C

Query block: Could you tell me which melting point is on file for O=c1cnc2c(NCCO)nc(SCc3cccc(C(F)(F)F)c3F)nc2[nH]1 ?
Result block: 221 to 222 °C

Query block: Could you tell me which melting point is on file for O=c1c(-c2cccc(C(F)(F)F)c2)ccc2ccccn12 ?
Result block: 110 to 111 °C

Query block: Could you tell me which melting point is on file for CCCCCCc1cc2c(s1)-n1c(C)nnc1CN=C2c1ccc(C)cc1C ?
Result block: 99 to 101 °C

###

Listed below: melting point values for each entry.

Sample records with melting point:
Compound: COc1cc(CCCC2SC(=O)NC2=O)cc(OC)c1OCc1coc(/C=C/c2ccccc2)n1 (stereo unspecified)
melting point: 163 to 164 °C

Compound: NC(=O)c1ccc(-c2cccc(N)c2)cc1
melting point: 206 to 208 °C

Compound: CCCCCCCCCCOc1cc(OCCCCCCCCCC)cc(C(=O)O)c1
melting point: 56 to 58 °C

Query block: Could you tell me which melting point is on file for CCN1CCOc2nc(Cl)c(Cl)nc21 ?
Result block: 108 to 110 °C

Query block: Could you tell me which melting point is on file for c1csc(-c2nc(CCCOc3ccc(CCCn4ccnc4)cc3)co2)c1 ?
Result block: 99 to 100 °C

Query block: Could you tell me which melting point is on file for CCCC1=C(C#N)C(c2ccccc2Cl)c2c(n[nH]c2C(C)(C)C)N1 (stereo unspecified) ?
Result block: > 270 °C
